Here's a roundup of pKi values tested on Adenosine receptor A3 (Homo sapiens), taken from various published works.
Expect pKi as a plain number equal to -log10 of the molar concentration.

Retrieve pKi on Adenosine receptor A3 (Homo sapiens); query COc1ccc(-n2cc3nc(C)nc(NC(=O)Cc4ccccc4)c3n2)cc1
6.28

Param request: pKi | system Adenosine receptor A3 (Homo sapiens) | item Cc1nc2c(N)nc(NCCc3ccccc3)nc2s1
6.26

Provide pKi, recorded with Adenosine receptor A3 (Homo sapiens), of CCCn1c(=O)c2[nH]c(-c3cnn(Cc4cc(-c5ccc(C(F)(F)F)cc5)on4)c3)nc2n(CCC)c1=O
5.92

Given Nc1nc(C(=O)NCc2cccc(Cl)c2)cc(-c2ccco2)n1 , report its pKi on Adenosine receptor A3 (Homo sapiens).
6.29

Find pKi for Nc1nc(-c2ccc(OCCNCCc3ccc(S(N)(=O)=O)cc3)cc2)cn2c(=O)n(-c3ccccc3)nc12 on Adenosine receptor A3 (Homo sapiens) and write it down.
5.15

Report pKi on Adenosine receptor A3 (Homo sapiens) for this entry: COc1cc(Nc2nc3c(N4CCC[C@H]4CO)ncnc3s2)cc(OC)c1OC
5.84

# lookup: Adenosine receptor A3 (Homo sapiens) pKi, key = Cn1c(-c2cccc(F)c2)nc2c(N)nc(C#CC3(O)CCCCC3)nc21
6.27

Identify measured pKi obtained with Adenosine receptor A3 (Homo sapiens) for O=C(Nc1ccccc1)Nc1ncc(C(=O)NCCc2ccccc2)c2nc(-c3ccco3)nn12 .
5.87

Consider the compound CNc1nc(C#Cc2ccc(Cl)s2)nc2c1ncn2[C@H]1[C@H](O)[C@H](O)[C@]2(C(=O)OCc3ccccc3)C[C@H]12 tested on Adenosine receptor A3 (Homo sapiens); state its pKi.
8.14

With Adenosine receptor A3 (Homo sapiens) as the test system, provide measured pKi for this compound: O=C(O)c1cnn(-c2nc(NC(C3CC3)C3CC3)c3ncn([C@H]4[C@H](O)[C@H](O)[C@@H]5C[C@@H]54)c3n2)c1
6.19

Please tell me the measured pKi for CNC(=O)[C@@]12C[C@@H]1[C@@H](n1cnc3c(NCCc4ccc(O)c(OC)c4)nc(C#Cc4ccsc4)nc31)[C@H](O)[C@@H]2O ; system: Adenosine receptor A3 (Homo sapiens).
8.48

Report pKi under test system Adenosine receptor A3 (Homo sapiens) for O=C(Nc1ccc(-c2ccncn2)c(-c2ccco2)n1)C1CC1 .
5.43

Using Adenosine receptor A3 (Homo sapiens) as the test system, report measured pKi of CNc1nc(-c2cn(Cc3cccc(Cl)c3)nn2)nc2c1ncn2[C@@H]1O[C@H](CO)[C@@H](O)[C@H]1O .
7.09

Answer briefly: pKi recorded on Adenosine receptor A3 (Homo sapiens) for CNC(=O)c1cnc(NC(=O)Nc2ccccc2)n2nc(-c3ccco3)nc12
6.14

Provide the reported pKi (system: Adenosine receptor A3 (Homo sapiens)) for O=C(Nc1nc(-c2ccccc2)cn2cc(-c3ccccc3)nc12)c1ccc(Cl)cc1
6.81

Param request: pKi | system Adenosine receptor A3 (Homo sapiens) | item COc1cccc(-c2c(C#N)c(N)nc(SCc3ncc[nH]3)c2C#N)c1
7.13

// output pKi; input CCc1nc2c([nH]1)c1nc(C)[nH]c1c1nc(CC)[nH]c12 ; system Adenosine receptor A3 (Homo sapiens)
6.87

System Adenosine receptor A3 (Homo sapiens). Read-out pKi. Item Cc1cccc(-n2cc3c(n2)c(NC(=O)C(c2ccccc2)c2ccccc2)nc2ccccc23)c1 . Report value.
7.85

# lookup: Adenosine receptor A3 (Homo sapiens) pKi, key = CCCn1c(=O)c2nc(-c3cnn(Cc4cc(-c5cccc(Cl)c5)on4)c3)[nH]c2n(CCC)c1=O
5.36

// fetch pKi; item: CNC(=O)[C@@]12C[C@@H]1[C@@H](n1cnc3c(NCC4CC4)nc(C#Cc4ccc(Cl)s4)nc31)[C@H](O)[C@@H]2O ; system: Adenosine receptor A3 (Homo sapiens)
8.10

# return pKi for COc1cccc(-c2nc(N)c3nc(-c4ccccc4)sc3n2)c1 , test system: Adenosine receptor A3 (Homo sapiens)
7.45

Answer briefly: pKi recorded on Adenosine receptor A3 (Homo sapiens) for Nc1nc(NCCc2ccccc2)nc2sc(-c3ccco3)nc12
6.66

GET pKi where system = Adenosine receptor A3 (Homo sapiens) and item = Cc1ccc(-c2oc3ccc(Cl)cc3c(=O)c2O)c(OC(C)C)c1
6.25

Tell me pKi of O=C(Nc1nc(-c2ccccc2)c(-c2nc3ccccc3c(=O)[nH]2)s1)c1ccco1 when tested on Adenosine receptor A3 (Homo sapiens).
5.41

Using Adenosine receptor A3 (Homo sapiens) as the test system, report measured pKi of CN(C)c1nc(-c2ccc(S(N)(=O)=O)cc2)cn2c(=O)n(-c3ccccc3)nc12 .
4.71

Please tell me the measured pKi for CC1CN2C(=O)N(Cc3ccccc3)c3nc(-c4cc(OCc5ccccc5)nn4C)[nH]c3C2=N1 (racemic) ; system: Adenosine receptor A3 (Homo sapiens).
7.35

Given CCNC(=O)[C@H]1O[C@@H](n2cnc3c(Nc4ccc(OCC(=O)Nc5ccccc5)cc4)ncnc32)[C@H](O)[C@@H]1O , report its pKi on Adenosine receptor A3 (Homo sapiens).
7.42

For Adenosine receptor A3 (Homo sapiens), give the measured pKi of the entry CCCn1c(=O)[nH]c2cc(-c3ccccc3)[nH]c2c1=O
6.42

Report measured pKi on Adenosine receptor A3 (Homo sapiens); entry: CCNc1nc(-n2cc(-c3ccc(Cl)s3)nn2)nc2c1ncn2[C@H]1[C@H](O)[C@H](O)[C@]2(C(=O)NC)C[C@H]12
8.91

State measured pKi of the compound CCOC(=O)c1nc(NC(=O)Cc2ccccc2)nc2nn(CC(C)(C)C)cc12 with Adenosine receptor A3 (Homo sapiens).
5.37

Would you please give the reported pKi of CNC(=O)[C@H]1O[C@@H](n2cnc3c(NCc4cc(Cl)cc(Cl)c4)ncnc32)[C@H](O)[C@@H]1O with Adenosine receptor A3 (Homo sapiens)?
8.60

# return pKi for O=c1oc2c(O)c(O)ccc2cc1-c1cc(Br)cs1 , test system: Adenosine receptor A3 (Homo sapiens)
5.47

Give Adenosine receptor A3 (Homo sapiens) pKi for the following compound: c1ccc(CNc2nc(Oc3ccccc3)nc3nc(-c4ccco4)nn23)cc1
6.43

* * *

Here's a roundup of pKi values tested on Adenosine receptor A3 (Homo sapiens, UniProt P0DMS8), taken from various published works.
In simple prose, pKi is minus the logarithm base ten of a concentration in moles per litre.

Specify pKi for CC(=O)Nc1nc2ccccc2c2cn(-c3ccc(C)cc3)nc12 and stop.
6.91

Write down pKi measured for item COC(=O)/C=C/Cn1c(=O)c2c(nc3ccccn32)n(Cc2ccccc2)c1=O
5.95

Quickly give me recorded pKi for Cn1cc2c(nc(NC(=O)Cc3cccc(Cl)c3)n3nc(-c4ccco4)nc23)n1
8.71

For the compound Nc1nc(OCCc2c[nH]c3cc(Br)ccc23)nc2c1ncn2[C@@H]1O[C@H](CO)[C@@H](O)[C@H]1O , give its measured pKi value.
7.05

Specify reported pKi for the compound shown: CCCC1=NC(c2ccccc2)=C(C(=O)OCC)C(CC)/C1=C(\O)SCC (stereo unspecified)
5.68

Tell me measured pKi for CC(C)(Oc1ccc(Cl)cc1)C(=O)Nc1nnc(-c2ccccc2)[nH]1 please.
6.30

Return pKi for the following compound: CCn1cc2c(nc(NC(=O)Cc3cccs3)n3nc(-c4ccco4)nc23)n1
6.71

Recall and state the measured pKi for CNC(=O)[C@@]12C[C@@H]1[C@@H](n1cnc3c(NC)nc(-n4cc(-c5cnn(C)c5)nn4)nc31)[C@H](O)[C@@H]2O .
8.67

Give reported pKi value for Cn1cc2c(nc(N)n3nc(-c4ccc(F)cc4)nc23)n1
7.50

Please give measured pKi of the following entry: Nc1nc(-c2ccc(O)cc2)cn2c(=O)n(-c3ccccc3)nc12
7.28

Look up and report measured pKi for this entry: O=C(Nc1nc2nn(CCc3ccccc3)cc2c2nc(-c3ccco3)nn12)C(c1ccccc1)c1ccccc1
8.19

Give pKi for Nc1ncnc2c1ncn2C1CCC1
4.48

Write down pKi measured for item Cc1ccc(CN2CCC(NC(=O)Nc3nc4nn(C)cc4c4nc(-c5ccco5)nn34)CC2)cc1
7.86

Give the measured pKi for COc1ccc(-c2cn3ccnc(NC(=O)c4ccccc4)c3n2)cc1
6.92

Read the entry COc1cc(Nc2nc3c(N4CCCC4)ncnc3s2)cc(OC)c1OC and write its reported pKi.
5.89

Give reported pKi value for CC(=O)Oc1ccc2cc(-c3ccsc3)c(=O)oc2c1OC(C)=O
5.44

Give me measured pKi, please, for this compound: Cc1nc(N)c2nc(-c3ccccc3)sc2n1
5.58

* * *

Here is a set of compounds with reported Ki for Adenosine receptor A3 (Homo sapiens, UniProt P0DMS8), compiled from the literature.
# number only, unit µM dropped from output

Specify Ki for CCNC(=O)[C@H]1O[C@@H](n2cnc3c(Nc4ccc(OCC(=O)Nc5ccccc5)cc4)nc(Cl)nc32)[C@H](O)[C@@H]1O , system Adenosine receptor A3 (Homo sapiens, UniProt P0DMS8).
0.107

Please look at CNC(=O)c1cnn(-c2nc(NC3CCCC3)c3ncn([C@@H]4O[C@H](CO)[C@@H](O)[C@H]4O)c3n2)c1 and tell me its recorded Ki on Adenosine receptor A3 (Homo sapiens, UniProt P0DMS8).
1.42

Fill: Ki (Adenosine receptor A3 (Homo sapiens, UniProt P0DMS8)) for this compound Cc1ccc(S(=O)(=O)n2cc(CCOc3nc(N)c4ncn([C@@H]5O[C@H](CO)[C@@H](O)[C@H]5O)c4n3)c3ccccc32)cc1
1.34

Please indicate recorded Ki of OC[C@@]12C[C@@H]1[C@@H](n1cnc3c(NC4CCCC4)ncnc31)C[C@@H]2O measured with Adenosine receptor A3 (Homo sapiens, UniProt P0DMS8).
2.88

Enter recorded Ki with Adenosine receptor A3 (Homo sapiens, UniProt P0DMS8) for CN(C)c1ccc(Nc2nc(NC3CCCCC3)c3[nH]cnc3n2)cc1 here.
0.07

Write down measured Ki (Adenosine receptor A3 (Homo sapiens, UniProt P0DMS8)) for this compound. CCCN(C)C(=O)[C@H]1S[C@@H](n2cnc3c(NCc4cccc(I)c4)nc(Cl)nc32)[C@H](O)[C@@H]1O
0.727

Return reported Ki for target or system Adenosine receptor A3 (Homo sapiens, UniProt P0DMS8), item COc1ccc(-n2nc3c(N(C(=O)c4ccccc4)C(=O)c4ccccc4)nc4ccccc4n3c2=O)cc1 .
0.00329

Please indicate recorded Ki of CCCCn1c(=O)c2[nH]c(C34CC5CC(CC3C5)C4)nc2n(CCCO)c1=O measured with Adenosine receptor A3 (Homo sapiens, UniProt P0DMS8).
2.3
